From: patent US20230416227A1

Documented IC50 across a set of compounds
- measured-on: Human plasma kallikrein (Homo sapiens)
- Construct: yields a heavy chain (371 amino acids) and a light chain (248 amino acids)
- Sequence (P03952 391-638 limits assumed): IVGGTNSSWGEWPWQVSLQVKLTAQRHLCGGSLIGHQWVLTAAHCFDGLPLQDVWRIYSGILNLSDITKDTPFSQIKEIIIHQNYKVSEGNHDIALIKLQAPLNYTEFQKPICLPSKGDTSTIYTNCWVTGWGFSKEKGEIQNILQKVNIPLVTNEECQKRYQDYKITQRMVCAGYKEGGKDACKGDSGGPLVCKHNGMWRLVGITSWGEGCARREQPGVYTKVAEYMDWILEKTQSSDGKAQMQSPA
- Sequence (P03952 20-390 partner limits assumed): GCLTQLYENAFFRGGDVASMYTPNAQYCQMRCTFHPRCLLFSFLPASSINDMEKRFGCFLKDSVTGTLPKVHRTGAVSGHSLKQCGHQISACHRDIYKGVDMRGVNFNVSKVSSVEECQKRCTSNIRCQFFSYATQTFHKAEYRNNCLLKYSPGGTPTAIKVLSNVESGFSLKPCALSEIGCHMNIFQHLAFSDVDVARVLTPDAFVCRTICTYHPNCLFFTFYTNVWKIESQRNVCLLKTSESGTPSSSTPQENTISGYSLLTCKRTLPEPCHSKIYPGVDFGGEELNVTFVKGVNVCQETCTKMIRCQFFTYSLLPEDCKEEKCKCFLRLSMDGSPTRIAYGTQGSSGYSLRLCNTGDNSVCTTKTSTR
- measurement-description: Plasma Kallikrein Assay
- condition-set: purified Human plasma kallikrein 0.5 nM, substrate Acetyl-K-P-R-AFC, pH 7.4
- Protocol: The effectiveness of a compound of the present invention as an inhibitor of plasma kallikrein can be determined using a relevant purified serine protease, and an appropriate synthetic substrate. The rate of hydrolysis of the chromogenic or fluorogenic substrate by the relevant serine protease was measured both in the absence and presence of compounds of the present invention. […] A decrease in the rate of fluorescence change in the presence of inhibitor is indicative of enzyme inhibition. […]
Report as a plain number; the unit nM is understood.

Problem: Could you share which IC50 value was measured for O=C(Nc1cnn(Cc2cnc(N3CCC3)nc2)n1)c1cncc(-c2c(C(F)F)ccc(Cl)c2F)n1 [Example 25] ?
Solution: 41.3
